Values were extracted from the supplement of paper PMC9732359.

assay: protein stability index of a GFP-peptide fusion (yeast GPS) (PSI 1-4); higher = more stable; sorted into four equal gates, so the index is relative within each strain; details: san1∆
Mark FALSE for protein stability index values under 3, and TRUE for everything at or above.

INSERT INTO results (construct_sequence, class_label) VALUES
  ('FEYEGVQDIIGNGKLSE [RPN1]', 'TRUE'),
  ('EEELFEVTKEEDIIANY [RRP43]', 'TRUE'),
  ('ERNEQEREIMNDHSKSA [SWI3]', 'TRUE'),
  ('RTSTRGRGRGRGRGRGR [SNF2]', 'FALSE'),
  ('GITAVHVKIRATGGTRT [RPS14B]', 'FALSE'),
  ('ARENAPSIIFIDEVDSI [RPT3]', 'FALSE'),
  ('RLANLIDYKLRVLTQDG [SMB1]', 'FALSE'),
  ('LGKGGAKRHRKILRDNI [HHF1]', 'TRUE'),
  ('LNRIINHMLIDSLNQLE [RGR1]', 'FALSE'),
  ('VDENGDPIWQHQSLGPD [RET1]', 'TRUE'),
  ('IDQAHVSEITKLKFFPS [RPN14]', 'TRUE'),
  ('ISKDCSAFACKTDEVII [BRR2]', 'TRUE'),
  ('PLKYTKLIAAAEDGSRS [SNF6]', 'FALSE'),
  ('VENYETSSAFFYQQVHK [SIR4]', 'FALSE'),
  ('AQAWINLGEYYAQIGDK [RPN7]', 'FALSE'),
  ('EVLLAGFGRKGKAKGDI [RPS23A]', 'TRUE'),
  ('KYLKKRKIGISIDDHPY [RPC31]', 'FALSE'),
  ('MIQEVIVEEDLEPFEAS [FAS2]', 'TRUE'),
  ('ALLGDKIYNFGELLHHP [RPN9]', 'FALSE'),
  ('QIGQVPLAPAPINLPPQ [SNF5]', 'FALSE'),
  ('SLEQRTLNPDLFLYKEL [RPC82]', 'TRUE'),
  ('SNGFNNVTFGSKKDPRI [YMR153W/NUP53]', 'FALSE'),
  ('GNGITNTTTRVIPQVEV [SNF5]', 'FALSE'),
  ('KPKMLPIPSKPTLFDLA [SRP68]', 'FALSE'),
  ('SGTAATGAASNQSSFNF [YOR098C/NUP1]', 'FALSE'),
  ('LGEFSITYTPVRHGRAG [RPS15]', 'FALSE'),
  ('LVQKTVQESGNIDYQKG [GRR1]', 'TRUE'),
  ('VVEISNGNTSSKTVVTL [FAS1]', 'TRUE'),
  ('QAKLKKNVETLEEKILA [SMC4]', 'TRUE'),
  ('KQLIMESQEKYMEPFDL [NSL1]', 'TRUE'),
  ('NDRNPRLNENKKIGCYM [CSN12]', 'TRUE'),
  ('KVISEILTREVQNSTLA [RPS1B]', 'FALSE'),
  ('IKTFLVDLTSSNFADSA [YDL116W/NUP84]', 'FALSE'),
  ('MVMREETIKSLEDPYKY [CSN9]', 'FALSE'),
  ('KMVIAELLPHYPFVTND [YJR042W/NUP85]', 'FALSE'),
  ('LITTYSKLSKNISFYKL [SIN4]', 'FALSE'),
  ('TDKKAFLGALKYLPHAI [PRP8]', 'TRUE'),
  ('ANFKTSKKYQLADWRIR [RRP6]', 'FALSE'),
  ('SRSRSSIRSISPAGKYK [ESC2]', 'TRUE'),
  ('SKTLSLIQSYSLLDKPD [FAS1]', 'FALSE');
